The reported measurements were obtained from PubChem BioAssay (NCI).

# Test system: 786-0 renal
# method description: NCI-60 one-dose screen, 48 h (100 = growth as untreated, 0 = no growth, -100 = all killed)
# reported conditions: 10 µM unless noted
This is part of a sample that, as a whole, favours compounds with a hit. Of some 83,000 tested, about 20% had one in any assay.
Catalogue of growth readings, one per entry.
Provide the reading as a plain figure in %.

The cases that follow already have their growth on record.
Which growth reading was recorded for the compound O=C(CSc1nc2ccccc2c(=O)n1-c1ccc(Cl)cc1)N/N=C/c1ccc(N2CCCCC2)cc1 ?
7.2

Entry COc1cc(Cn2cc3c(c2)-c2onc(CN4CCCC4)c2CC3)cc(OC)c1OC : reported growth = ?
99.4

What value of measured growth is listed for Nn1c(N/N=C/c2nc3ccccc3s2)n[nH]c1=S ?
96.1

Could you share which growth value was measured for O=C(CNc1nc(-c2cccc([N+](=O)[O-])c2)cs1)Nc1cccc([N+](=O)[O-])c1 ?
-13.6

Can you look up the measured growth of COc1ccc(/C=C(/C)c2ccc3ccc(OC)cc3[o+]2)c(O)c1 for me?
88.9

***
For the compound shown here, Cc1ccc(S(=O)(=O)N(CC[C@@H]2C[C@H]2c2cc3ccccc3o2)S(=O)(=O)c2ccc(C)cc2)cc1 , give the reported growth.
99.7

May I ask what growth has been recorded for CCCCCCCn1cc2c(N[C@H](C)c3ccccc3)ncnc2n1 ?
105

Data request, read-out growth, for O=C(O)c1cn(C2CC2)c2cc(N3CCN(C(=O)CN4C(=O)CSC4=O)CC3)c(F)cc2c1=O
94.1

Consider the compound shown here: Cc1ccc(NC(=S)NNC(=S)Nc2ccc(C)cc2)cc1 What is its recorded growth?
89.6

Which growth reading was recorded for the compound CNC(=O)c1c(NC(=O)c2ccccc2C(F)(F)F)sc2c1CCC(=O)C2 ?
39.6

###

# Test system: SR leukemia
# method description: NCI-60 one-dose screen, 48 h (100 = growth as untreated, 0 = no growth, -100 = all killed)
# reported conditions: 10 µM unless noted
This is part of a sample that, as a whole, favours compounds with a hit. Of some 83,000 tested, about 20% had one in any assay.
Note to self: values exactly at 30% are 1 (yes). So growth at or above 30% is 1 (yes), below is 0 (no).

Previously resolved entries follow.
Is growth at least 30%? Consider CNC(=O)c1cc(-c2ccc(NS(=O)(=O)c3ccc(C)cc3)cc2)nc2cccnc12
1 (yes)

Quick check: does N#Cc1c(NC(=O)c2cccc(C(F)(F)F)c2F)sc2c1CCC(=O)C2 have growth greater than or equal to 30%?
0 (no)

Test whether the compound COc1cc(/C=C/C(=O)c2ccc(NC(=O)CSc3nnc(-c4ccc(-c5nc6ccc(Cl)cc6[nH]5)cc4)o3)cc2)cc(OC)c1OC records growth of 30% or higher.
1 (yes)

Continuing:
Record CC[C@H](CO)Nc1ccc2ncc(C#Cc3cncc(C(=O)Nc4ccc(CN5CCN(C)CC5)c(C(F)(F)F)c4)c3)n2n1 ; criterion: growth no lower than 30%. Met?
0 (no)

Record O=C(c1ccc(O)c(C(=O)N2Cc3ccc(OCCC[P+](c4ccccc4)(c4ccccc4)c4ccccc4)cc3C2)c1)N1Cc2cccc(F)c2C1 ; criterion: growth no lower than 30%. Met?
1 (yes)

Does CCCn1cnc2c(c1=N)C(c1ccc(OC)cc1)c1sc3c(CC)cccc3c1O2 (configuration not stated) have a reported growth of at least 30%?
0 (no)

Evaluate CCCCCc1ccc(S(=O)(=O)Nc2cc(-c3csc(NC(=O)CN4CCN(C)CC4)n3)ccc2OC)cc1 : growth at minimum 30%?
0 (no)

Does the compound C[C@H](CCC(=O)NCc1ccc(C(=O)Nc2ccccc2N)cc1)[C@H]1CC[C@H]2[C@@H]3[C@@H](O)C[C@@H]4C[C@H](O)CC[C@]4(C)[C@H]3CC[C@]12C have recorded growth that is 30% or more?
1 (yes)

Does O=S(=O)(NCCCNc1nccc(-c2[nH]c(-c3ccccc3)nc2-c2ccc(Cl)c(O)c2)n1)c1cccc2ccccc12 have a reported growth of at least 30%?
0 (no)

Test whether the compound CC(=O)N1C(=S)NC(=O)C1CC(C)C (configuration not stated) records growth of 30% or higher.
1 (yes)
